- System: Wistar (Crl:WI(Han)) rats
- PROTOCOL DETAILS: Mass spectrometry-based plasma metabolite profiling of rats treated with known inducers of thyroid function impairment
- Type: in vivo, rat
- CONDITION PARAMETERS: male rats, mh28 (study day 28), ratio of group medians vs controls, Table 4
Recorded Threonic acid for the following compounds

| COMPOUND | Threonic acid |
| --- | --- |
| Cc1cccc(C)c1N(Cn1cccn1)C(=O)CCl [Metazachlor] | 1.36 |
| Cn1cc[nH]c1=S [Methimazole] | 0.69 |
| CCC(CC)Nc1c([N+](=O)[O-])cc(C)c(C)c1[N+](=O)[O-] [Pendimethalin] | 1.85 |
| CCC1(c2ccccc2)C(=O)NC(=O)NC1=O [Phenobarbital sodium] | 1.88 |

###

- System: Wistar (Crl:WI(Han)) rats
- PROTOCOL DETAILS: Mass spectrometry-based plasma metabolite profiling of rats treated with known inducers of thyroid function impairment
- Type: in vivo, rat
- CONDITION PARAMETERS: male rats, mh14 (study day 14), ratio of group medians vs controls, Table 4
RECORDED ENDPOINT: erythro-Sphingosine

| COMPOUND | RECORDED ENDPOINT | RESULT |
| --- | --- | --- |
| Cn1cc[nH]c1=S | erythro-Sphingosine | 3.71 |
| CCC1(c2ccccc2)C(=O)NC(=O)NC1=O [Phenobarbital sodium] | erythro-Sphingosine | 1.56 |
| CCC(CC)Nc1c([N+](=O)[O-])cc(C)c(C)c1[N+](=O)[O-] | erythro-Sphingosine | 3.33 |
| Cc1cccc(C)c1N(Cn1cccn1)C(=O)CCl | erythro-Sphingosine | 3.47 |

###

- Test system: Wistar (Crl:WI(Han)) rats
- PROTOCOL DETAILS: Mass spectrometry-based plasma metabolite profiling of rats treated with known inducers of thyroid function impairment
- Type: in vivo, rat
- CONDITION PARAMETERS: male rats, mh7 (study day 7), ratio of group medians vs controls, Table 4
Recorded Mannose for the following molecules

| MOLECULE | EXPERIMENTAL SYSTEM | Mannose |
| --- | --- | --- |
| Cc1cccc(C)c1N(Cn1cccn1)C(=O)CCl | Wistar (Crl:WI(Han)) rats | 1.22 |
| Cn1cc[nH]c1=S | Wistar (Crl:WI(Han)) rats | 1.06 |
| CCC1(c2ccccc2)C(=O)NC(=O)NC1=O [Phenobarbital sodium] | Wistar (Crl:WI(Han)) rats | 1.08 |
| CCC(CC)Nc1c([N+](=O)[O-])cc(C)c(C)c1[N+](=O)[O-] | Wistar (Crl:WI(Han)) rats | 1.31 |

###

- System: Wistar (Crl:WI(Han)) rats
- PROTOCOL DETAILS: Mass spectrometry-based plasma metabolite profiling of rats treated with known inducers of thyroid function impairment
- Assay type: in vivo, rat
- CONDITION PARAMETERS: male rats, mh28 (study day 28), ratio of group medians vs controls, Table 4
Recorded erythro-Sphingosine for the following compounds

| COMPOUND | EXPERIMENTAL SYSTEM | erythro-Sphingosine |
| --- | --- | --- |
| Cn1cc[nH]c1=S [Methimazole] | Wistar (Crl:WI(Han)) rats | 3.47 |
| Cc1cccc(C)c1N(Cn1cccn1)C(=O)CCl [Metazachlor] | Wistar (Crl:WI(Han)) rats | 3.68 |
| CCC(CC)Nc1c([N+](=O)[O-])cc(C)c(C)c1[N+](=O)[O-] [Pendimethalin] | Wistar (Crl:WI(Han)) rats | 2.69 |
| CCC1(c2ccccc2)C(=O)NC(=O)NC1=O [Phenobarbital sodium] | Wistar (Crl:WI(Han)) rats | 1.65 |

Reference source for all entries: patent US20120132797A1
